Attribute: half-life at 10 μM
- Protocol Text: Hepatocyte stability assay, human
- Format: in vitro ADME
- Cond: human, hepatocytes, T½
All answers are understood in h, so give the number only.

>  <Compound>
C=C(CC(=O)N[C@@H](C)c1ccc(C(F)(F)F)cc1)C(=O)OC1CCN(S(C)(=O)=O)CC1 [Example 22]

>  <Val>
0.617

$$$$

Ask | State, in one line, measured half-life at 10 μM of C=C(CC(=O)NC1(c2ccc(C(F)(F)F)cc2)COC1)C(=O)O [Example 13]
Reply | 7.17

====

- Protocol Text: Hepatocyte stability assay, human
- Type: in vitro ADME
- Cond: human, hepatocytes, T½
- Experimental: Defrosted cryo-preserved hepatocytes (viability>70%) were used to determine the metabolic stability of a compound via calculation of intrinsic clearance (CIint; a measure of the removal of a compound from the liver in the absence of blood flow and cell binding). […] The metabolic stability in hepatocytes assay involved a time-dependent reaction using both positive and negative controls. […] 80 μL of clear supernatant was removed and mixed with 80 μL of deionised water before being analysed by LC-MS/MS. […]
Attribute: half-life at 10 μM
All answers are understood in h, so give the number only.

>  <Structure String>
C=C(CC(=O)N[C@@H](C)c1ccc(C(F)(F)F)cn1)C(=O)OCCO

>  <half-life at 10 μM, h>
2.28

$$$$
>  <Structure String>
C=C(CC(=O)N[C@@H](C)c1ccc(Br)cc1)C(=O)O

>  <half-life at 10 μM, h>
4.68

$$$$
>  <Structure String>
C[C@H](NC(=O)C/C(=C\CCc1ccccc1)C(=O)O)c1ccc(C(F)(F)F)cc1

>  <half-life at 10 μM, h>
3.35

$$$$

Ask | State, in one line, measured half-life at 10 μM of CC(C)C/C=C(\CC(=O)N[C@@H](C)c1ccc(C(F)(F)F)cc1)C(=O)O
Reply | 3.83

Ask | State, in one line, measured half-life at 10 μM of C=C(CC(=O)NC1CCCCCCC1)C(=O)OC1CCN(S(C)(=O)=O)CC1
Reply | 2

====

- Protocol Text: Hepatocyte stability assay, human
- Type: in vitro ADME
- Cond: human, hepatocytes, T½
Measurement Label: half-life at 10 μM

Some solved cases for reference:
>  <Molecule>
C[C@H](NC(=O)C/C(=C\CN(C)C)C(=O)O)c1ccc(C(F)(F)F)cc1

>  <Measurement Label>
half-life at 10 μM

>  <Val>
> 7.67 h

$$$$
>  <Molecule>
C=C(CC(=O)N[C@H](c1ccc(C(F)(F)F)cc1)C(F)(F)F)C(=O)O

>  <Measurement Label>
half-life at 10 μM

>  <Val>
> 7.67 h

$$$$
>  <Molecule>
C=C(CC(=O)N[C@@H](C)c1ccc(C(F)(F)F)c(F)c1)C(=O)O

>  <Measurement Label>
half-life at 10 μM

>  <Val>
7.28 h

$$$$

Ask | State, in one line, measured half-life at 10 μM of C=C(CC(=O)NC1(c2ccc(C(F)(F)F)cc2)CCCC1)C(=O)O
Reply | > 7.67 h

Ask | State, in one line, measured half-life at 10 μM of C=C(CC(=O)NC1CCc2cc(C(F)(F)F)ccc21)C(=O)O (centres unmarked)
Reply | > 7.67 h

====

- Protocol Text: Hepatocyte stability assay, mouse
- Type: in vitro ADME
- Cond: mouse, hepatocytes, T½, data from repeated experiments
Measurement Label: half-life at 10 μM

Some solved cases for reference:
>  <Structure String>
C=C(CC(=O)N[C@@H](C)c1ccc(C(F)(F)F)cc1)C(=O)O

>  <half-life at 10 μM>
> 460 min

$$$$
>  <Structure String>
C=C(CC(=O)NCc1ccc(Cl)cc1)C(=O)OC1CCN(S(C)(=O)=O)CC1

>  <half-life at 10 μM>
11 min

$$$$

Now for a further molecule.
Ask | State, in one line, measured half-life at 10 μM of C=C(CC(=O)NC1CCCCCCC1)C(=O)OC1CCN(S(C)(=O)=O)CC1
Reply | 9 min

====

Attribute: Clint
- Tested on: cryo-preserved hepatocytes
- Protocol Text: Hepatocyte stability assay, human
- Type: in vitro ADME
- Cond: human, hepatocytes
All answers are understood in μL min^−1 10^−6 cells, so give the number only.

Some solved cases for reference:
>  <Compound>
C=C(CC(=O)N[C@@H](C)c1ccc(C(F)(F)F)cc1)C(=O)OC1CCN(C)CC1 [Example 24]

>  <Measure Unit>
μL min^−1 10^−6 cells

>  <Clint>
23

$$$$
>  <Compound>
C=C(CC(=O)N[C@@H](C)c1ccc(C(F)(F)F)c(F)c1)C(=O)O [Example 19]

>  <Measure Unit>
μL min^−1 10^−6 cells

>  <Clint>
4

$$$$

Now for a further compound.
Ask | State, in one line, measured Clint of C=C(CC(=O)N[C@@H](C)c1ccc(C(F)(F)F)cc1)C(=O)OC1CS(=O)(=O)C1 [Example 27]
Reply | 126

====

- Test system: NRF2 (nuclear factor erythroid 2-related factor 2)
- Protocol Text: NRF2 +/-GSH activation assay (DiscoverX PathHunter NRF2 translocation kit, U2OS cells)
- Type: cell-based
- Cond: Homo sapiens, U2OS; +GSH; normalised to dimethyl fumarate high control; read-out: NRF2 activation Emax, +GSH
Attribute: Emax
All answers are understood in %, so give the number only.

>  <Structure String>
C=C(CC(=O)NCc1ccc(Cl)cc1)C(=O)OC1CCN(S(C)(=O)=O)CC1

>  <Target Entity>
NRF2 (nuclear factor erythroid 2-related factor 2)

>  <Emax / %>
19

$$$$
>  <Structure String>
C=C(CC(=O)N[C@@H](C)c1ccc(C(F)(F)F)cc1)C(=O)OCCN1CCOCC1

>  <Target Entity>
NRF2 (nuclear factor erythroid 2-related factor 2)

>  <Emax / %>
22

$$$$
>  <Structure String>
C=C(CC(=O)N[C@@H](C)c1ccc(C(F)(F)F)cn1)C(=O)OC1CCN(C)CC1

>  <Target Entity>
NRF2 (nuclear factor erythroid 2-related factor 2)

>  <Emax / %>
12

$$$$

Now for a further molecule.
Ask | State, in one line, measured Emax of C=C(CC(=O)N[C@@H](C)c1ccc(C(F)(F)F)cn1)C(=O)OC1CN(C(C)=O)C1
Reply | 25

====

- System: cryo-preserved hepatocytes
- Protocol Text: Hepatocyte stability assay, mouse
- Type: in vitro ADME
- Cond: mouse, hepatocytes
Threshold 100 μL min^−1 10^−6 cells. Clint below it: true (1). Clint at it or above: false (0).

Record excerpt, results attached:
>  <Compound>
C=C(CC(=O)N[C@@H](C)c1ccc(S(F)(F)(F)(F)F)cc1)C(=O)O

>  <Classification>
true (1)

$$$$
>  <Compound>
C=C(CC(=O)N[C@@H](C)c1ccc(SC(F)(F)F)cc1)C(=O)O

>  <Classification>
true (1)

$$$$
>  <Compound>
C=C(CC(=O)N[C@H](c1ccc(C(F)(F)F)cc1)C(F)(F)F)C(=O)O

>  <Classification>
true (1)

$$$$
>  <Compound>
C=C(CC(=O)NC1CCCCCCC1)C(=O)OC1CCN(S(C)(=O)=O)CC1

>  <Classification>
false (0)

$$$$
>  <Compound>
C=C(CC(=O)NC1(c2ccc(C(F)(F)F)cc2)CC1)C(=O)O

>  <Classification>
true (1)

$$$$
>  <Compound>
C/C=C(/CC(=O)N[C@@H](C)c1ccc(C(F)(F)F)cc1)C(=O)O

>  <Classification>
true (1)

$$$$

Ask | Consider the compound C=C(CC(=O)N[C@@H](C)c1ccc(C(F)(F)F)cn1)C(=O)OC1CCN(C)CC1 . Is its Clint strictly less than 100 μL min^−1 10^−6 cells?
Reply | true (1)

Ask | Consider the compound C[C@H](NC(=O)C/C(=C/c1ccccc1)C(=O)O)c1ccc(C(F)(F)F)cc1 . Is its Clint strictly less than 100 μL min^−1 10^−6 cells?
Reply | true (1)

Ask | Consider the compound CC/C=C(\CC(=O)N[C@@H](C)c1ccc(C(F)(F)F)cc1)C(=O)O . Is its Clint strictly less than 100 μL min^−1 10^−6 cells?
Reply | true (1)

Ask | Consider the compound C=C(CC(=O)NC(c1ccc(C(F)(F)F)cc1)C(F)(F)F)C(=O)O (stereo not drawn) . Is its Clint strictly less than 100 μL min^−1 10^−6 cells?
Reply | true (1)

Ask | Consider the compound C=C(CC(=O)N[C@@H](C)c1ccc(C(F)(F)F)cc1)C(=O)OCCN1CCOCC1 . Is its Clint strictly less than 100 μL min^−1 10^−6 cells?
Reply | false (0)

Ask | Consider the compound C=C(C(=O)O)C(C)(C)C(=O)N[C@@H](C)c1ccc(C(F)(F)F)cc1 . Is its Clint strictly less than 100 μL min^−1 10^−6 cells?
Reply | true (1)

Ask | Consider the compound C[C@H](NC(=O)C/C(=C\c1ccccc1)C(=O)O)c1ccc(C(F)(F)F)cc1 . Is its Clint strictly less than 100 μL min^−1 10^−6 cells?
Reply | true (1)

Ask | Consider the compound C=C(CC(=O)N[C@@H](C)c1ccc(C(F)(F)F)cc1)C(=O)OC1CCN(C)CC1 . Is its Clint strictly less than 100 μL min^−1 10^−6 cells?
Reply | false (0)
